Reference source: patent US20250109139A1

# ASSAY TEXT: Pharmacokinetics in SD rats, single dose intragastric and intravenous
# Assay type: in vivo
# CONDITION PARAMETERS: male, rat, plasma, intravenous injection, dose 10 mg/kg, read-out: Elimination half-life t1/2 (converted)
MEASURED PROPERTY: half-life (h)

1. COc1cccc2c1cc1n2CCN(CC[C@H]2CC[C@H](NC(=O)N(C)C)CC2)C1	3.67

---

# ASSAY TEXT: Pharmacokinetics in SD rats, single dose intragastric and intravenous
# Format: in vivo
# CONDITION PARAMETERS: male, rat, plasma, intravenous injection, dose 10 mg/kg, read-out: Clearance CL
# Procedure: Testing of pharmacokinetic properties of compounds administered in a single dose to SD rats by intragastric administration and intravenous injection After the compound was administered in a single dose to male SD rats, blood samples were collected at different time points. The concentration of the compound in the plasma of the rats was determined by LC-MS/MS and the relevant pharmacokinetic parameters were calculated to investigate the pharmacokinetics of the compound in rats. […]
MEASURED PROPERTY: clearance

1. COc1cccc2c1cc1n2CCN(CC[C@H]2CC[C@H](NC(=O)N(C)C)CC2)C1	20.1 mL/min/kg
